In this section we review reported MIC values for a set of compounds.
# System: P. aeruginosa
# Method Description: MIC, broth microdilution, CDC/FDA Antibiotic Resistance Isolate Bank (Example 7, Tables 10, 15)
# Assay type: cell-based
# Details: Pseudomonas aeruginosa, P. aeruginosa KUB No. 5668, AR Bank # 235; read-out: MIC
Number only, in µg/mL; omit the unit.

Example compounds with recorded MIC:
compound="CC(C)(O/N=C(\\C(=O)N[C@@H]1C(=O)N2C(C(=O)[O-])=C(C[N+]3(CCNC(=O)c4ccc(O)c(O)c4Cl)CCCC3)CS[C@H]12)c1csc(N)n1)C(=O)O [Cefiderocol, cefiderocol]" measured_result=1
compound="NCC[C@H](O)C(=O)N[C@@H]1C[C@H](N)[C@@H](O[C@H]2O[C@H](CN)[C@@H](O)[C@H](O)[C@H]2O)[C@H](O)[C@H]1O[C@H]1O[C@H](CO)[C@@H](O)[C@H](N)[C@H]1O [Amikacin, amikacin]" measured_result=64

Quick one: MIC of CN(C)c1cc(NC(=O)CNC(C)(C)C)c(O)c2c1C[C@H]1C[C@H]3[C@H](N(C)C)C(O)=C(C(N)=O)C(=O)[C@@]3(O)C(O)=C1C2=O [Tigecycline, tigecycline] ? 8

Quick one: MIC of C[C@H]1COc2c(N3CCN(C)CC3)c(F)cc3c(=O)c(C(=O)O)cn1c23 [Levofloxacin, levofloxacin] ? 64

----------
In this section we review reported MIC values for a set of compounds.
# Test system: Enterobacterales
# Method Description: MIC, broth microdilution, CDC/FDA Antibiotic Resistance Isolate Bank (Example 7, Tables 8, 11, 12)
# Assay type: cell-based
# Details: Klebsiella pneumoniae, KUB No. 5572, AR Bank # 75; read-out: MIC

structure=CC(C)(O/N=C(\C(=O)N[C@@H]1C(=O)N2C(C(=O)[O-])=C(C[N+]3(CCNC(=O)c4ccc(O)c(O)c4Cl)CCCC3)CS[C@H]12)c1csc(N)n1)C(=O)O measured_property=MIC measured_result="0.25 µg/mL"

Quick one: MIC of CO/N=C(\C(=O)N[C@@H]1C(=O)N2C(C(=O)[O-])=C(C[n+]3ccn4ncccc43)CS[C@H]12)c1nsc(N)n1 ? > 64 µg/mL

Quick one: MIC of O=C(O)c1cn(C2CC2)c2cc(N3CCNCC3)c(F)cc2c1=O ? > 64 µg/mL

Quick one: MIC of NCC[C@H](O)C(=O)N[C@@H]1C[C@H](N)[C@@H](O[C@H]2O[C@H](CN)[C@@H](O)[C@H](O)[C@H]2O)[C@H](O)[C@H]1O[C@H]1O[C@H](CO)[C@@H](O)[C@H](N)[C@H]1O ? > 64 µg/mL

----------
# Experimental System: PDC-11 (Pseudomonas aeruginosa, UniProt P24735, form not given, species not given)
# Sequence (P24735 27-397): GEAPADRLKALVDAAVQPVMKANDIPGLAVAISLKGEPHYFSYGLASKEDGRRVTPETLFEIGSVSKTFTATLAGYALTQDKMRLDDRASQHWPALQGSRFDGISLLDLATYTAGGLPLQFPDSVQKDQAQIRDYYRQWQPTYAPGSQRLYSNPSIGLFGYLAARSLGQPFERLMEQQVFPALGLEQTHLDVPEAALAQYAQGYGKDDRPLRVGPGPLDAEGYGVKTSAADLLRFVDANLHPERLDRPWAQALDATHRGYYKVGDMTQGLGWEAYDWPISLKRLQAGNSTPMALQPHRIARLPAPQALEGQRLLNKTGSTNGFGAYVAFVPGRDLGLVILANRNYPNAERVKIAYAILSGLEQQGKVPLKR
# Details: PDC-11, class C; 30 min preincubation; n.d.: too low inhibitor activity at 100 µmol/L; read-out: Ki app
Measured Property: Ki (µM)
Number only, in µM; omit the unit.

Quick one: Ki of O=C(O)C[C@@H]1CC[C@H](NC(=O)Cc2cccs2)B(O)O1 ? 3.86

----------
# System: A. baumannii
# Method Description: MIC, broth microdilution, CDC/FDA Antibiotic Resistance Isolate Bank (Example 7, Tables 9, 13, 14)
# Format: cell-based, Acinetobacter baumannii
# Details: Acinetobacter baumannii, KUB No. 5729, AR Bank #296; read-out: MIC
In this section we review reported MIC values for a set of molecules.
Number only, in µg/mL; omit the unit.

Example molecules with recorded MIC:
structure=CC(C)(O/N=C(\C(=O)N[C@@H]1C(=O)N2C(C(=O)[O-])=C(C[N+]3(CCNC(=O)c4ccc(O)c(O)c4Cl)CCCC3)CS[C@H]12)c1csc(N)n1)C(=O)O measured_property=MIC measured_result=0.5
structure=CN(C)c1cc(NC(=O)CNC(C)(C)C)c(O)c2c1C[C@H]1C[C@H]3[C@H](N(C)C)C(O)=C(C(N)=O)C(=O)[C@@]3(O)C(O)=C1C2=O measured_property=MIC measured_result=1

For the next question, use this molecule.
Quick one: MIC of C[C@H]1COc2c(N3CCN(C)CC3)c(F)cc3c(=O)c(C(=O)O)cn1c23 ? 32
